Reference source for all entries: patent US4535075A

Tested on: liver damage induced by carbon tetrachloride
methodNotes: Protective (Controlling) effect on liver damage induced by carbon tetrachloride
Format: in vivo, mice (dd strain)
runParameters: 250 mg/kg p.o., CCl4 0.05 ml/kg after 6 h, 24 h; CCl4 alone >2,100
endpoint: log10 of p-GPT (log10 of the value in Karmen units)
Scale type: logarithmic (base 10). Underlying p-GPT unit: Karmen units.

Consider the following illustrative entries.
What value of log10 of p-GPT has been recorded for this entry: CCOC(=O)C(C(=O)OCC)=C1SC2OC(=O)OC2S1 (centres unmarked)
1.88

Which log10 of p-GPT value is on record for CC(=O)C(C(=O)OC(C)C)=C1SC(O)C(O)S1 (centres unmarked) ?
2.17

Field request: log10 of p-GPT | item: CCCCCOC(=O)C(C(C)=O)=C1SC2OC(=O)OC2S1 (centres unmarked)
1.45

Form field: reported log10 of p-GPT of CC(C)CCOC(=O)C(C#N)=C1SC(O)C(O)S1 (centres unmarked)
2.02

Which log10 of p-GPT is reported for this molecule? CCCC(=O)C(C(=O)OCC)=C1SC(O)C(O)S1 (centres unmarked)
1.88

Query: log10 of p-GPT; subject: COC(=O)C(C(C)=O)=C1SC2OC(=O)OC2S1 (centres unmarked)
1.66

Which log10 of p-GPT value belongs to CCCCOC(=O)C(C(C)=O)=C1SC(O)C(O)S1 (centres unmarked) ?
1.49

So what's the measured log10 of p-GPT for this one? CCCOC(=O)C(C(C)=O)=C1SC(OC(=O)OCC)C(OC(=O)OCC)S1 (centres unmarked)
2.11

I have this molecule here, CCOC(=O)C(C(C)=O)=C1SC(O)C(O)S1 (centres unmarked) , and I need its recorded log10 of p-GPT.
1.96

Find the recorded log10 of p-GPT belonging to CC(C)OC(=O)C(C#N)=C1SC(O)C(O)S1 (centres unmarked) and report it.
1.36

***
Field request: log10 of p-GPT | item: COC(=O)C(C(C)=O)=C1SC(O)C(O)S1 (centres unmarked)
1.49

Query: log10 of p-GPT; subject: CCCCOC(=O)C(C(=O)OCCCC)=C1SC2OC(=O)OC2S1 (centres unmarked)
1.93

# lookup: log10 of p-GPT of CCCCCOC(=O)C(C(=O)OCCCCC)=C1SC(O)C(O)S1 (centres unmarked)
1.32

###

Parameter: log10 of p-GPT. Scope: all listed entries.
Tested on: liver damage induced by carbon tetrachloride
methodNotes: Protective (Controlling) effect on liver damage induced by carbon tetrachloride
Assay type: in vivo, mice (dd strain)
runParameters: 250 mg/kg p.o., CCl4 0.05 ml/kg after 6 h, 24 h; CCl4 alone >2,100
Note the log scale: values are log10 of p-GPT expressed in Karmen units.

Some compounds with recorded log10 of p-GPT:
# returns recorded log10 of p-GPT (system: liver damage induced by carbon tetrachloride) for CC(C)CCOC(=O)C(C(=O)OCCC(C)C)=C1SC(O)C(O)S1 (stereo not drawn) [Compound 9]
1.67

Query for liver damage induced by carbon tetrachloride: what log10 of p-GPT does the record show for CCCOC(=O)C(C#N)=C1SC(O)C(O)S1 (stereo not drawn) [Compound 26] ?
1.38

# get_value(readout= log10 of p-GPT, system= liver damage induced by carbon tetrachloride) for CCCOC(=O)C(C(=O)OCCC)=C1SC(O)C(O)S1 (stereo not drawn) [Compound 3]
1.08

Recall the recorded log10 of p-GPT for CC(C)COC(=O)C(C(=O)OCC(C)C)=C1SC2OC(=O)OC2S1 (stereo not drawn) [Compound 77] with liver damage induced by carbon tetrachloride and state it.
1.33

Give liver damage induced by carbon tetrachloride log10 of p-GPT for COCCOC(=O)C(C(=O)OCCOC)=C1SC(O)C(O)S1 (stereo not drawn) [Compound 14]
1.75

Give liver damage induced by carbon tetrachloride log10 of p-GPT for CCCC(=O)C(C(=O)OCC)=C1SC2OC(=O)OC2S1 (stereo not drawn) [Compound 101]
1.30

Others:
Request body: readout log10 of p-GPT, system liver damage induced by carbon tetrachloride, query CCOC(=O)C(C(=O)OCC)=C1SC2OC(=S)OC2S1 (stereo not drawn) [Compound 107] . Return the value.
1.63

Any idea what log10 of p-GPT came out for CC(=O)C(C(=O)OCCC(C)C)=C1SC(O)C(O)S1 (stereo not drawn) [Compound 43] on liver damage induced by carbon tetrachloride?
1.56

Report log10 of p-GPT for CCCCCOC(=O)C(C(=O)OCCCCC)=C1SC2OC(=O)OC2S1 (stereo not drawn) [Compound 80] tested on liver damage induced by carbon tetrachloride.
1.85

Record lookup: for liver damage induced by carbon tetrachloride, what log10 of p-GPT belongs to CCCCOC(=O)C(C#N)=C1SC(O)C(O)S1 (stereo not drawn) [Compound 28] ?
1.90

Provide the documented log10 of p-GPT with liver damage induced by carbon tetrachloride as the system for CC(C)OC(=O)C(C(=O)OC(C)C)=C1SC2OC(=S)OC2S1 (stereo not drawn) [Compound 109]
2.14

What reported log10 of p-GPT corresponds to CCC(C)OC(=O)C(C(C)=O)=C1SC(O)C(O)S1 (stereo not drawn) [Compound 40] on liver damage induced by carbon tetrachloride?
2.24

Please state recorded log10 of p-GPT (tested on liver damage induced by carbon tetrachloride) of CCOC(=O)C(C(=O)OCC)=C1SC(O)C(O)S1 (stereo not drawn) [Compound 2]
1.18

Give recorded log10 of p-GPT with liver damage induced by carbon tetrachloride for the following compound: CCOC(=O)C(C(=O)Cc1ccccc1)=C1SC(O)C(O)S1 (stereo not drawn) [Compound 55]
2.02

Notebook entry, liver damage induced by carbon tetrachloride assay: log10 of p-GPT of CC(C)(C)OC(=O)C(C(=O)OC(C)(C)C)=C1SC(O)C(O)S1 (stereo not drawn) [Compound 7] = ?
1.95

###

Tested on: liver damage induced by carbon tetrachloride
methodNotes: Protective (Controlling) effect on liver damage induced by carbon tetrachloride
Type: in vivo, mice (dd strain)
runParameters: 250 mg/kg p.o., CCl4 0.05 ml/kg after 6 h, 24 h; CCl4 alone >2,100
endpoint: p-GPT (Karmen units)
Give the value in Karmen units but do not write Karmen units after it.

As a guide, the following entries are already answered.
Find the recorded p-GPT belonging to CCOC(=O)C(C(=O)Cc1ccccc1)=C1SC2OC(=O)OC2S1 (centres unmarked) and report it.
602.2

I would be grateful if you could share the reported p-GPT for CC(=O)C(C(=O)OCc1ccccc1)=C1SC(O)C(O)S1 (centres unmarked) .
18

More entries:
Reported p-GPT for CC(C)OC(=O)C(C(=O)OC(C)C)=C1SC(O)C(O)S1 (centres unmarked) : what is it?
22.5

Query (compound): CCCCOC(=O)C(C(=O)OCCCC)=C1SC(O)C(O)S1 (centres unmarked) ; field requested: p-GPT
18

Which value of p-GPT has been reported for CCC(C)OC(=O)C(C(=O)OC(C)CC)=C1SC2OC(=S)OC2S1 (centres unmarked) in the records?
18.6

Look up p-GPT for this compound: CC(=O)OC1SC(=C(C(=O)OC(C)C)C(=O)OC(C)C)SC1OC(C)=O (centres unmarked)
42.0

Look at this compound and give its reported p-GPT. CCCOC(=O)C(C(=O)OCC)=C1SC(O)C(O)S1 (centres unmarked)
40

###

Below, each entry is listed alongside its reported log10(p-GPT).
Test system: liver damage induced by carbon tetrachloride
methodNotes: Protective (Controlling) effect on liver damage induced by carbon tetrachloride
Type: in vivo, mice (dd strain)
runParameters: 250 mg/kg p.o., CCl4 0.05 ml/kg after 6 h, 24 h; CCl4 alone >2,100
Values below are the log10 of the recorded p-GPT, with Karmen units as the unit.

The cases that follow already have their log10(p-GPT) on record.
Entry under review: CCCOC(=O)C(C(C)=O)=C1SC(O)C(O)S1 (stereo not shown) . Reported log10(p-GPT)?
1.48

Given C#CCOC(=O)C(C(=O)OCC#C)=C1SC2OC(=O)OC2S1 (stereo not shown) , state its recorded log10(p-GPT).
1.48

I would be grateful if you could share the reported log10(p-GPT) for CCC(C)OC(=O)C(C(=O)OC(C)CC)=C1SC(OC(C)=O)C(OC(C)=O)S1 (stereo not shown) .
2.31

Name the recorded log10(p-GPT) for CC(=O)C(C(=O)OCCC(C)C)=C1SC2OC(=O)OC2S1 (stereo not shown) .
1.19

I am curious: what log10(p-GPT) value has been reported for CCCOC(=O)C(C(C)=O)=C1SC(OC(=O)C(C)(C)C)C(OC(=O)C(C)(C)C)S1 (stereo not shown) ?
2.60

Next:
# get_value(readout='log10(p-GPT)', item= CCCOC(=O)C(C(C)=O)=C1SC(OC(=O)N(C)C)C(OC(=O)N(C)C)S1 (stereo not shown) )
2.70

# lookup: log10(p-GPT) of CCCOC(=O)C(C(=O)OCCC)=C1SC(OC(=O)OCC)C(OC(=O)OCC)S1 (stereo not shown)
1.73
